Tested on: Bacteroides fragilis sp. vulgatus 1211
test_name: Susceptibility of anaerobic bacteria, agar dilution
Type: cell-based
assay_conditions: 24 h; Bacteroides fragilis sp. vulgatus 1211; read-out: 24 Hr. Minimum Inhibitory Concentration
assay_readout: MIC (µg/mL)
Answers are plain numbers, in µg/mL.

CCCCC(CC)COC=Nc1c(C#N)c(-c2ncc([N+](=O)[O-])n2C)nn1C (stereo not shown) [Compound 13D] = 1

Hey, can you go through the list below and give me MIC for every item?
1. CC(=O)Nc1c(C(=O)O)c(-c2ncc([N+](=O)[O-])n2C)nn1C
2. Cn1nc(-c2ncc([N+](=O)[O-])n2C)c(C(=O)O)c1N [Compound 10A]
3. CC(=O)Nc1c(C#N)c(-c2ncc([N+](=O)[O-])n2C)nn1C
4. CN(C)S(=O)(=O)Nc1c(C#N)c(-c2ncc([N+](=O)[O-])n2C)nn1C

A:
1: 2; 2: 0.25; 3: 0.25; 4: 2

====

System: Clostridium perfringens 81
test_name: microbe, parasite or virus in culture
Assay type: cell-based
assay_conditions: Clostridium perfringens, 81, 24 h, read-out: 24 Hr. Minimum Inhibitory Concentration
assay_readout: MIC

These recorded examples may help you get a feel for the data.
CCCn1nc(-c2ncc([N+](=O)[O-])n2C)c(C#N)c1N = < 0.125 µg/mL
COC=Nc1c(C#N)c(-c2ncc([N+](=O)[O-])n2C)nn1C = < 0.125 µg/mL
CC(=O)Nc1c(C(=O)O)c(-c2ncc([N+](=O)[O-])n2C)nn1C = 8 µg/mL
CNNC=Nc1c(C#N)c(-c2ncc([N+](=O)[O-])n2C)nn1C = < 0.125 µg/mL

Hey, can you go through the list below and give me MIC for every item?
1. CN(C)S(=O)(=O)Nc1c(C#N)c(-c2ncc([N+](=O)[O-])n2C)nn1C
2. CC[C@H]1OC(=O)[C@H](C)[C@@H](O[C@H]2C[C@@](C)(OC)[C@@H](O)[C@H](C)O2)[C@H](C)[C@@H](O[C@@H]2O[C@H](C)C[C@H](N(C)C)[C@H]2O)[C@](C)(O)C[C@@H](C)C(=O)[C@H](C)[C@@H](O)[C@]1(C)O [Erythromycin, erythromycin, reference compound]
3. CCOC=Nc1c(C#N)c(-c2ncc([N+](=O)[O-])n2C)nn1C

A:
["8 µg/mL", "< 0.5 µg/mL", "< 0.125 µg/mL"]

====

System: Pasteurella multocida
test_name: Efficacy against Pasteurella multocida infections in mice when administered by injection (Experiment 1)
Format: in vivo, Swiss mice
assay_conditions: ip, 5.0 mg./kg. i.p., challenge dilution 10^-^5, read-out: Survival Ratio (converted)
For each of the compounds below, state its responders at 5 mg/kg.
Answers are plain numbers, in %.

These recorded examples may help you get a feel for the data.
C=CCOC=Nc1c(C#N)c(-c2ncc([N+](=O)[O-])n2C)nn1C [Compound 13A] = 80
CC(C)COC=Nc1c(C#N)c(-c2ncc([N+](=O)[O-])n2C)nn1C [Compound 13C] = 80
Cn1nc(-c2ncc([N+](=O)[O-])n2C)c(C#N)c1N = 90
CCCCOC=Nc1c(C#N)c(-c2ncc([N+](=O)[O-])n2C)nn1C = 45
CCCCC(CC)COC=Nc1c(C#N)c(-c2ncc([N+](=O)[O-])n2C)nn1C (centres unmarked) [Compound 13D] = 100
CC(=O)Nc1c(C(=O)O)c(-c2ncc([N+](=O)[O-])n2C)nn1C = 30
Cn1nc(-c2ncc([N+](=O)[O-])n2C)c(C#N)c1N=COCCCl [Compound 13B] = 70

Below: the item to evaluate.
Entry under test: COC=Nc1c(C#N)c(-c2ncc([N+](=O)[O-])n2C)nn1C . Its responders at 5 mg/kg was 90
